System: KM20L2 colon
Method Description: NCI tumour cell line growth inhibition, 48 h

Compound	Measurement Target	Comparison Operator	TGI / µM
Cc1ccc([N+](=O)[O-])cc1NC(=O)C(=O)Cc1cc(=O)oc2cc(O)ccc12	KM20L2 colon	>	100
COCOCc1cc(OCc2ccccc2)c(OC)cc1Br	KM20L2 colon	>	100
CCC[CH2][Sn]1([CH2]CCC)[O]C(=O)c2cccc(OC)c2[O]1	KM20L2 colon	=	2.68
O=C(O)C(Cc1cnc[nH]1)N=Cc1nc(-c2ccccc2)oc1O (stereo not given)	KM20L2 colon	>	100
Oc1ccc2c3c1OC1C(=NN=C4CCC5(O)C6Cc7ccc(O)c8c7C5(CCN6CC5CC5)C4O8)CCC4(O)C(C2)N(CC2CC2)CCC314 (stereo not given)	KM20L2 colon	=	41.7

###

Test system: MCF7 breast
Method Description: NCI tumour cell line growth inhibition, 48 h
Result Type: TGI

Structure Notation	Measurement Target	Result
O=NNc1cnccn1	MCF7 breast	1240 µM
COc1cc2c(cc1OCCCCCn1c(-c3ccco3)nc3ccccc31)N=C[C@@H]1CCCN1C2=O	MCF7 breast	19 µM
O=C(Nc1cccnc1)c1cccc([N+](=O)[O-])c1	MCF7 breast	> 100 µM
O=c1oc2cc(O)ccc2cc1-c1nc2ccccc2s1	MCF7 breast	67 µM
CCCC(=O)/C=C/S/C=C/C(=O)CCC	MCF7 breast	> 100 µM
COc1ccc(/C=C(\C(=O)OCC(C)C)c2ccc(OC)c(OC)c2)cc1OC	MCF7 breast	> 100 µM

###

System: KM20L2 colon
Method Description: NCI tumour cell line growth inhibition, 48 h
Result Type: log10 TGI (log10 of the value in µM)

Molecule	Result Type	Numeric Value
CCN(CC)CCC(=O)c1ccccc1	log10 TGI	1.69
O=C(Nc1ccc([N+](=O)[O-])cc1C(=O)O)c1ccc([N+](=O)[O-])cc1	log10 TGI	1.81
CCOC(=O)N[C@H]1CCc2cc(O)c(OC)c(OC)c2-c2ccc(SC)c(=O)cc21	log10 TGI	-1.52
Nc1ccc(C(=O)NN2C(=O)C(Cl)C2c2ccc([N+](=O)[O-])cc2)cc1 (configuration not stated)	log10 TGI	1.44
CC(=O)[O-].[Ni].c1ccc(/C(=N\Nc2ccccn2)c2ccccn2)cc1	log10 TGI	1.34
Cn1cnc([N+](=O)[O-])c1Sc1nc2cccnc2s1	log10 TGI	1.50

###

Tested on: A498 renal
Method Description: NCI tumour cell line growth inhibition, 48 h
Let's look at some molecules and their measured TGI.

Molecule	Measurement Target	Comparison Operator	TGI / µM
CN1C(=O)c2cc([N+](=O)[O-])ccc2[C@H]2C(=O)c3cc4c(cc3[C@H]21)OCO4	A498 renal	=	0.528
CN(C)c1ccc(/C=C/c2ccnc3ccccc23)cc1N	A498 renal	=	22.3
CC(=O)O[C@H]1[C@@H](OC2CCCC2(c2ccccc2)c2ccccc2)O[N+]([O-])=C[C@@]12COCc1cc3c(cc12)OCO3 (stereo partly specified)	A498 renal	=	7.67
O=c1[nH]c(=O)n(C2CC(O)C(CO)O2)cc1C#Cc1cc(C(F)(F)F)cc(C(F)(F)F)c1 (stereo unspecified)	A498 renal	>	100
COc1cc(-c2c3c([nH]c(=O)c2C#N)-c2cc([N+](=O)[O-])ccc2CCC3)cc(OC)c1OC	A498 renal	=	66.9
COc1cc2c3c(n(CCCNC(=O)OCC4c5ccccc5-c5ccccc54)c(=O)c2cc1OC)-c1cc2c(cc1C3=O)OCO2	A498 renal	>	100
CC(=O)N1CC[N+](C)(CCCCN2c3ccccc3Sc3cc(N=[N+]=[N-])ccc32)CC1	A498 renal	>	100
C[N+](C)(C)Cc1c(CC#N)[nH]c2ccccc12	A498 renal	>	100
O=c1oc2ccc(F)cc2c(=O)n1-c1ccc(Cl)cc1F	A498 renal	=	0.796
COc1ccc(C(=O)/C=C/c2ccc(OCC(=O)O)cc2)cc1	A498 renal	>	100
COC1=CC(=O)c2c(O)ccc(O)c2C1=O	A498 renal	=	31.6
Cc1ccc(S(=O)(=O)N/N=C/c2oc(-c3ccccc3Cl)c(-c3ccccc3Cl)c2[N+](=O)[O-])cc1	A498 renal	=	61.8
COc1cc(C=Nc2ccc(S(N)(=O)=O)cc2)cc(OC)c1	A498 renal	>	50
CCOC(=O)/C=C(\C(=O)OCC)n1cnc2c(N)ncnc21	A498 renal	=	17.7
COc1cc(Nc2ncc3c(C)nc(-c4cccc(Oc5ccccc5)c4)n3n2)cc(OC)c1OC	A498 renal	>	22.9
CNc1cccnc1/C=N/NC(N)=S	A498 renal	>	10
Cn1cnc([N+](=O)[O-])c1SC1=NCCS1	A498 renal	>	100
COc1cc(CNC(=O)[C@H](Cc2ccc(O)cn2)NC(C)=O)cc(OC)c1	A498 renal	>	100
N#CCc1ccc(/C(C#N)=C2/OC(=N)C(c3ccc(CC#N)cc3)C2=O)cc1 (stereo unspecified)	A498 renal	>	100
CC(=O)NC(CCCCNC(=O)OC(C)(C)C)C(=O)O (stereo unspecified)	A498 renal	>	100
COc1ccc(N=Nc2c(C)c(C#N)c(=S)n(C3OC(COC(C)=O)C(OC(C)=O)C(OC(C)=O)C3OC(C)=O)c2-c2ccccc2)cc1 (stereo unspecified)	A498 renal	=	7.09
O=C1C=CC[C@H](/C=C/C[C@@H](O)C[C@H](O)/C=C/c2ccccc2)O1	A498 renal	=	27
O[C@@H]1CCCN1Cc1cc2cc3c(cc2c2cc(OCc4ccccc4)ccc12)OCO3	A498 renal	=	25.3
COc1cc2c3c(n(CCCCNC(=O)OCC4c5ccccc5-c5ccccc54)c(=O)c2cc1OC)-c1cc2c(cc1C3=O)OCO2	A498 renal	>	100
Cn1c(=O)c2c(ncn2CCSS(=O)(=O)O)n(C)c1=O	A498 renal	>	100
CO/N=C(\COc1ccc2c(c1)oc(=O)c1cc(OC)ccc12)c1cccc(OC)c1	A498 renal	>	100
Cn1ccnc1C(=O)/C=C/c1ccc(C(=O)Nc2ccccc2O)cc1	A498 renal	=	6.18
Nc1ccc(C(=O)NN2C(=O)C(Cl)C2c2ccc([N+](=O)[O-])cc2)cc1 (stereo unspecified)	A498 renal	=	38.6
COc1cc(/C=C/c2sc3ccccc3[n+]2C)ccc1N(C)C	A498 renal	>	100
COc1ccc(NC(=O)COC(=O)c2cccc3c(=O)c4ccccc4[nH]c23)cc1	A498 renal	=	39.6
O=C(O)/C=C/c1cnc[nH]1	A498 renal	>	500
O=C(CC/C(CC(=O)c1ccc(Cl)cc1)=N/O)Nc1ccc(Cl)c(Cl)c1	A498 renal	>	100
CC1C=CC(C)C2(O)C(=O)NC(O)C12 (stereo unspecified)	A498 renal	>	100
O=C1CSC(=S)N1Cc1cccnc1	A498 renal	=	56.2
N#CC(C#N)=Cc1ccc(C=C2SC3=C(SCCS3)S2)s1	A498 renal	=	42.7
O=C(Nc1nncs1)NS(=O)(=O)n1cnc2ccccc21	A498 renal	>	100

###

Test system: CCRF-CEM leukemia
Method Description: NCI tumour cell line growth inhibition, 48 h
Result Type: TGI

Compound	Result
CC(=O)OC1(C#N)CC2OC1C1C2N1C(=O)OC(C)(C)C (stereo not given)	> 100 µM
O=c1[nH]c(=O)n(C2CC(O)C(CO)O2)cc1C#Cc1cc(C(F)(F)F)cc(C(F)(F)F)c1 (stereo not given)	> 100 µM
COc1ccc(Cn2cc3c(c2-c2ccc(O)cc2)CCc2cnoc2-3)cc1	4.2 µM
Cn1c(=O)c2nc3nnc(C#N)c(N)n3c2n(C)c1=O	> 100 µM
O=C1/C(=C/c2ccc(Cl)cc2)N=C(c2ccccc2)N1C1Nc2cc3c(cc2S1)NC(N1C(=O)/C(=C/c2ccc(Cl)cc2)N=C1c1ccccc1)S3 (stereo not given)	> 100 µM

###

Tested on: NCI-H460 lung
Method Description: NCI tumour cell line growth inhibition, 48 h
Result Type: TGI (µM)

Compound	Measurement Target	Comparison Operator	Numeric Value
COc1cc(C2CC(c3ccc(Nc4ccnc5cc(Cl)ccc45)cc3)=NN2C=O)cc(OC)c1OC (stereo not given)	NCI-H460 lung	>	100
c1ccc2c(c1)CCN1CCc3c([nH]c4ccccc34)C21 (stereo not given)	NCI-H460 lung	>	100
CC(=O)NC(CCCCNC(=O)OC(C)(C)C)C(=O)O (stereo not given)	NCI-H460 lung	>	100
COc1cc(Nc2ncc3c(C)nc(-c4cccc(Oc5ccccc5)c4)n3n2)cc(OC)c1OC	NCI-H460 lung	>	25
COc1cc(C2c3[nH]c4ccc(F)cc4c3C[C@H]3COC(=O)N23)cc(OC)c1O (stereo not given in full)	NCI-H460 lung	=	19.8
CC(=O)[O-].CC(=O)[O-].O=C(N/N=C/c1cc(Cl)cc(Cl)c1[OH2+])c1ccncc1.[Zn+2]	NCI-H460 lung	>	100
O=Cc1[nH]c(=O)[nH]c(=O)c1CCl	NCI-H460 lung	=	99.5
CCCN1CN(c2ccccc2)C2(CCN(CCCC(=O)c3ccc(F)cc3)CC2)C1=O	NCI-H460 lung	=	26.9
O=C1NC(N/N=C/c2ccccc2)=N/C1=C\c1cccs1	NCI-H460 lung	>	100
COC(=O)c1c(C)cc2c(c1O)C1(O)C(=O)c3cc4c(c(O)c3C(=O)C1(OC)C(O)C2)C(=O)C=C(NC1OC(C)C(OC)C(O)C1OC)C4=O (stereo not given)	NCI-H460 lung	=	0.435
